Taken from patent US20110143948A1.

# Test system: ncRNAs (SEQ ID NO 28-89)
# protocol: ncRNA arrays of melanocytes, keratinocytes, normal skin, melanoma cell lines and patient samples
# Set-up: species or system human
# measurementContext: melanoma patient 28 sample compared to normal skin
# Experimental: An ncRNA array platform that contains over 10,000 putative (>200 nt) ncRNAs including most of the known ncRNAs in mouse and human was conducted to evaluate ncRNAs within melanoma. Lack of coding potential was estimated by an algorithm that scores various characteristics of protein-coding genes, including open reading frame length, synonymous/non-synonymous base substitution rates and similarity to known proteins. […]
# Lookup of reported ncRNA array expression, patient 28 keyed by entry
Provide a numeric answer; units are not to be included.

SEQ ID NO 87 (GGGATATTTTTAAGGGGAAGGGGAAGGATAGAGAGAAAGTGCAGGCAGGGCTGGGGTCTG; listed as DNA, chemistry not given here; listed as Homo sapiens) = −2.17
SEQ ID NO 66 (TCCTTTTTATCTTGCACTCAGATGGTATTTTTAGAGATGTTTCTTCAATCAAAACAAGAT; listed as DNA, chemistry not given here; listed as Homo sapiens) = 2.749

Reported ncRNA array expression, patient 28 ( SEQ ID NO 68 (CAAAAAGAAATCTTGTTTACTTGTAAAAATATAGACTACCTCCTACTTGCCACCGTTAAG; listed as DNA, chemistry not given here; listed as Homo sapiens) ) = −1.556

Reported ncRNA array expression, patient 28 ( SEQ ID NO 65 (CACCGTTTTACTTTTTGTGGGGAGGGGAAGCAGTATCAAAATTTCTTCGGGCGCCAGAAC; listed as DNA, chemistry not given here; listed as Homo sapiens) ) = −1.421

Reported ncRNA array expression, patient 28 ( SEQ ID NO 50 (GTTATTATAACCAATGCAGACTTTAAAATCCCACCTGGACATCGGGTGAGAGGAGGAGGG; listed as DNA, chemistry not given here; listed as Homo sapiens) ) = −1.738

Reported ncRNA array expression, patient 28 ( SEQ ID NO 42 (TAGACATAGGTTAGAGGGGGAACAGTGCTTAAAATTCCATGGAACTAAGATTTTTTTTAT; listed as DNA, chemistry not given here; listed as Homo sapiens) ) = −1.339

Reported ncRNA array expression, patient 28 ( SEQ ID NO 35 (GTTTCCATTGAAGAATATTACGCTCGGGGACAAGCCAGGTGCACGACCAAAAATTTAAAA; DNA, backbone and methylation of C not given here; listed as Homo sapiens) ) = 4.108

Reported ncRNA array expression, patient 28 ( SEQ ID NO 77 (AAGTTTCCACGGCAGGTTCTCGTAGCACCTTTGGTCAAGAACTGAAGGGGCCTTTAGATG; listed as DNA, chemistry not given here; listed as Homo sapiens) ) = −1.165
